Origin of measurements: ChEMBL document CHEMBL3352336

Reported Retention_time values are given for each entry in this list.
# assay-protocol: Retention time of the compound
# Assay type: physicochemical
Only the number, expressed in min, is required.

Solved cases below.
[
  {
    "structure-string": "Cc1cnn(C(=O)Nc2ccc3ccccc3c2)c1",
    "Retention_time / min": 3.9
  },
  {
    "structure-string": "N#Cc1cnn(C(=O)N2CCN(Cc3ccc(Oc4ccccc4)cc3)CC2)c1",
    "Retention_time / min": 3.927
  },
  {
    "structure-string": "N#Cc1cnn(C(=O)Cc2ccc3ccccc3c2)c1",
    "Retention_time / min": 3.906
  },
  {
    "structure-string": "N#Cc1cnn(C(=O)OCc2ccc(-c3ccccc3)cc2)c1",
    "Retention_time / min": 4.103
  },
  {
    "structure-string": "N#Cc1cnn(C(=O)NCCCCc2ccccc2)c1",
    "Retention_time / min": 3.746
  },
  {
    "structure-string": "Cc1cnn(C(=O)OCc2ccc(OCc3ccccc3)cc2)c1",
    "Retention_time / min": 3.91
  }
]

Give a short answer stating reported Retention_time for O=C(Cc1ccc2ccccc2c1)n1cccn1 .
3.788

Identify the reported Retention_time for the following entry. Cc1cnn(C(=O)NCc2ccc(-c3ccccc3)cc2)c1
3.907

Provide one value: measured Retention_time of O=C(NCCCc1ccccc1)n1cccn1
3.989

Give the reported Retention_time for this molecule. Cc1cnn(C(=O)OCc2ccc(Oc3ccccc3)cc2)c1
3.899

Let me know recorded Retention_time for Cc1cnn(C(=O)OCCCCc2ccccc2)c1 , thanks.
3.988

Check the records and state Retention_time for Cc1cnn(C(=O)NCCCCCc2ccccc2)c1
4.178

For the molecule N#Cc1cnn(C(=O)N2CCN(Cc3ccc4ccccc4c3)CC2)c1 , give its measured Retention_time value.
3.915

Specify reported Retention_time for the molecule shown: CC(C)(C)OC(=O)N1CCCN(C(=O)n2cccn2)CC1
3.518
